# test.system: canine TRPM8 (Canis lupus familiaris, UniProt Q1A7N1)
# Construct: expressed in transfected cells
# Sequence (Q1A7N1 1-1104): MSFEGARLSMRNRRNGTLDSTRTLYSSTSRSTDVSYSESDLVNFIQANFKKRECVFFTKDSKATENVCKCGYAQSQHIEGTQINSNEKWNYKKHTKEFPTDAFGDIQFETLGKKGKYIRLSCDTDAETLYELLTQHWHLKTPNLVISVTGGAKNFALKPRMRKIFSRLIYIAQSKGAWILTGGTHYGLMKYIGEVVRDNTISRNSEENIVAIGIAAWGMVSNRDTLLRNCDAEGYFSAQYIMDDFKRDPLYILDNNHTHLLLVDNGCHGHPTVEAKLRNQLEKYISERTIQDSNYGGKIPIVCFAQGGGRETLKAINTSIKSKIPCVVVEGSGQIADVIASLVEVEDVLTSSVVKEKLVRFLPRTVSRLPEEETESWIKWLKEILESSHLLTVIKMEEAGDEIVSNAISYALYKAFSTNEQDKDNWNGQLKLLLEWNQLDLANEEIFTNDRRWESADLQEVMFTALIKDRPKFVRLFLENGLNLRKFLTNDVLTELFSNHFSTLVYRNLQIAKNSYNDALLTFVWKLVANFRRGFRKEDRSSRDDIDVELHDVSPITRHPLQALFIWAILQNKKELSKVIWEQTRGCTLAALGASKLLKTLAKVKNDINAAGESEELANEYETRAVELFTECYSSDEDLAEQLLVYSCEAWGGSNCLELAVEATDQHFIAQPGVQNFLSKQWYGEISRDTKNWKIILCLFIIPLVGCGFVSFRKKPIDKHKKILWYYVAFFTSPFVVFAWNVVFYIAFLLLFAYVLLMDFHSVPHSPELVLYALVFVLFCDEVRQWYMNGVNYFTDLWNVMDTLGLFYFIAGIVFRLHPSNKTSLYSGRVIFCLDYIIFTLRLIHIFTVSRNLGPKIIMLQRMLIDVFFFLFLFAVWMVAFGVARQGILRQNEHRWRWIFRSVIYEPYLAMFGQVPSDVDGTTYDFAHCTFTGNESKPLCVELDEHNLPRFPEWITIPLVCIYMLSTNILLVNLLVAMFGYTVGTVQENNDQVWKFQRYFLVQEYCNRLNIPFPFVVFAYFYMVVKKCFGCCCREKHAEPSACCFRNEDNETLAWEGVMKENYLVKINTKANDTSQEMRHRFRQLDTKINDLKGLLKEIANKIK
# test.method.notes: In vitro canine TRPM8 functional assay (Ca2+-sensitive dye, FLIPR/FDSS, icilin activation)
# Assay type: cell-based
# experimental.context: 0.5 μM compound; HEK293 cells expressing canine TRPM8, icilin activation
Entries and their % I (0.5 μM)

Observe how each entry below is paired with its result.
CC(C)OP(=O)(OC(C)C)C(Cc1ccc(F)c(C(F)(F)F)c1)c1sc2cccc(F)c2c1Br (racemic): 103%
CC(C)OP(=O)(OC(C)C)C(Cc1ccc(S(C)(=O)=O)cc1)c1sc2ccccc2c1Br (stereo not drawn): 44%
CCOP(=O)(OCC)C(Cc1ccc(Cl)c(C(F)(F)F)c1)c1sc2ccccc2c1Cl (racemic): 103%

Query string: Could you share what % I (0.5 μM) was measured for CCOP(=O)(OCC)C(Cc1c(F)c(F)c(OC)c(F)c1F)c1sc2ccccc2c1Br (racemic) , tested on canine TRPM8 (Canis lupus familiaris, UniProt Q1A7N1)?
Result string: 87%

Query string: Recorded % I (0.5 μM) for CC(C)OP(=O)(OC(C)C)C(Cc1cccc(OC(F)(F)F)c1)c1sc2ccccc2c1Cl (racemic) with canine TRPM8 (Canis lupus familiaris, UniProt Q1A7N1), please?
Result string: 102%

Query string: Provide the documented % I (0.5 μM) with canine TRPM8 (Canis lupus familiaris, UniProt Q1A7N1) as the system for CC(C)OP(=O)(OC(C)C)C(Cc1cc(Cl)ccc1F)c1sc2ccccc2c1Br (racemic)
Result string: 103%
